- Test system: Trypanosoma brucei brucei
- procedure summary: Antitrypanosomal activity against wild type Trypanosoma brucei brucei s427 after 48 hrs by alamar blue assay
- Type: functional, organism-based
- condition set: s427, 48 h
Lab note: anything with IC50 below 100 µM is marked T; values at 100 µM or higher are marked F.

Sample answers from the record:
[
  {
    "compound": "C[C@H]1[C@H](OC(=O)CCC(=O)OCCCNc2nc(N)nc(N)n2)O[C@@H]2O[C@@]3(C)CC[C@H]4[C@H](C)CC[C@@H]1[C@@]24OO3",
    "label": "T"
  },
  {
    "compound": "CC(C)(C)OC(=O)NCCCC(N)(C(=O)NCCCNc1nc(N)nc(N)n1)C(F)F (centres undefined)",
    "label": "F"
  },
  {
    "compound": "CC1COc2c(N3CCN(C)CC3)c(F)cc3c(=O)c(C(=O)OCCCNc4nc(N)nc(N)n4)cn1c23 (centres undefined)",
    "label": "T"
  }
]

Strictly below 100 µM in IC50? CCn1cc(C(=O)O)c(=O)c2cc(F)c(N3CCNC(C)C3)c(F)c21 (centres undefined)
F

Here's an entry: NCCCC(N)(C(=O)OCCCNc1nc(N)nc(N)n1)C(F)F (centres undefined) . Is its IC50 below 100 µM?
F

Quick check: IC50 of CCn1cc(C(=O)O)c(=O)c2cc(F)c(N3CCN(c4nc(N)nc(N)n4)CC3)cc21 under 100 µM?
T

Given the entry NCCCC(N)(C(=O)NCCCNc1nc(N)nc(N)n1)C(F)F (centres undefined) , would its reported IC50 be below 100 µM?
F

For this compound, is IC50 lower than 100 µM? C[C@H]1[C@H](OC(=O)CCC(=O)O)O[C@@H]2O[C@@]3(C)CC[C@H]4[C@H](C)CC[C@@H]1[C@@]24OO3 [ARTESUNATE]
T

====

- Test system: Trypanosoma brucei brucei
- procedure summary: Resistance factor, ratio of IC50 for TbAT1 knock out and pentamidine-resistant Trypanosoma brucei brucei B48 mutant to IC50 for wild type Trypanosoma brucei brucei s427
- Type: functional
# binarize Ratio IC50: threshold 2 inclusive, high side true (1), low side false (0)

Completed entries (count: 5):
[
  {
    "compound": "CCn1cc(C(=O)O)c(=O)c2cc(F)c(N3CCN(c4nc(N)nc(N)n4)CC3)cc21",
    "label": "true (1)"
  },
  {
    "compound": "C[C@H]1[C@H](OC(=O)CCC(=O)NCCCNc2nc(N)nc(N)n2)O[C@@H]2O[C@@]3(C)CC[C@H]4[C@H](C)CC[C@@H]1[C@@]24OO3",
    "label": "true (1)"
  },
  {
    "compound": "CC1COc2c(N3CCN(C)CC3)c(F)cc3c(=O)c(C(=O)OCCCNc4nc(N)nc(N)n4)cn1c23 (stereo unspecified)",
    "label": "false (0)"
  },
  {
    "compound": "C[C@H]1[C@H](OC(=O)CCC(=O)O)O[C@@H]2O[C@@]3(C)CC[C@H]4[C@H](C)CC[C@@H]1[C@@]24OO3 [ARTESUNATE]",
    "label": "true (1)"
  },
  {
    "compound": "CC(C)(C)OC(=O)NCCCC(N)(C(=O)OCCCNc1nc(N)nc(N)n1)C(F)F (stereo unspecified)",
    "label": "true (1)"
  }
]

Could you now look at the following compound, please?
Say whether C[C@H]1[C@H](OC(=O)CCC(=O)OCCCNc2nc(N)nc(N)n2)O[C@@H]2O[C@@]3(C)CC[C@H]4[C@H](C)CC[C@@H]1[C@@]24OO3 shows Ratio IC50 of 2 or more.
true (1)
